- Test system: Leishmania infantum MHOM/MA(BE)/67/ITMAP263 intracellular amastigotes
- testName: microbe, parasite or virus in culture
- protocolConditions: Macrophage, in Mus musculus, read-out: L. infantum MHOM/MA(BE)/67/ITMAP263 intracellular amastigotes IC50, intracellular amastigotes
pIC50: −log10 of the molar value.
The threshold is inclusive: pIC50 of exactly 5 counts as True; values below receive False.

Exam item: Is the recorded value of pIC50 equal to or greater than 5 for this compound? `COc1ccc(Cl)cc1S(=O)(=O)N(CC(=O)c1ccc(F)cc1)Cc1ccccc1`
Marked response: False

Exam item: Is the recorded value of pIC50 equal to or greater than 5 for this compound? `COc1ccc(C(=O)N2CCCC2)cc1S(=O)(=O)N(Cc1ccccc1)Cc1ccccc1`
Marked response: True

Exam item: Is the recorded value of pIC50 equal to or greater than 5 for this compound? O=S1(=O)NC(Cc2ccccc2)COc2ccc(F)cc21 (centres unmarked)
Marked response: False

Exam item: Is the recorded value of pIC50 equal to or greater than 5 for this compound? `COCCN(Cc1ccccc1)S(=O)(=O)c1c(OC)ccc(Cl)c1S(C)(=O)=O`
Marked response: False

Exam item: Is the recorded value of pIC50 equal to or greater than 5 for this compound? `COc1ncccc1S(=O)(=O)N(Cc1ccccc1)Cc1ccccc1`
Marked response: True

Exam item: Is the recorded value of pIC50 equal to or greater than 5 for this compound? O=S(=O)(c1cc(F)ccc1F)N(Cc1ccccc1)CC(O)c1ccc(F)cc1 (centres unmarked)
Marked response: False
